// reported IC50 per item
# System: Plasmodium falciparum
# assay-details: Antimalarial activity against Plasmodium falciparum IV-V gametocytes
# Format: functional, organism-based
Reply with just the number (in µM).

INSERT INTO measurements (molecule, tested_on, readout_name, data_value) VALUES
  ('CCCCNC(=O)CCC(C)[C@H]1CCC2C3C(C[C@H](OC(C)=O)[C@@]21C)[C@@]1(C)CCC2(C[C@H]1C[C@H]3OC(C)=O)OOCOO2 (some centres not stated)', 'Plasmodium falciparum', 'IC50', 1.16);

Input line: I am curious: what IC50 value has been reported for C[C@H]1[C@@H](O)O[C@@H]2O[C@@]3(C)CC[C@H]4[C@H](C)CC[C@@H]1[C@@]24OO3 ?
Output line: 0.44
